Entries and their MIC100
# Test system: C.krusei CCM 8271
# ASSAY_PROCEDURE: MIC, broth microdilution
# Assay type: cell-based, Candida krusei
# PARTICULARS: C.krusei CCM 8271, 24 h
Where a SMILES comes first, the peptide text is derived from it. [ ]: non-standard residue; d: D form. The star is where a group is joined. Palmitoyl = CCCCCCCCCCCCCCCC(=O)*; Pentanoyl = CCCCC(=O)*; Ahx = NCCCCCC(=O)O
API: value field is a number in µg/mL; no unit string.

- CC[C@H](C)[C@H](NC(=O)CCCCCN)C(=O)N[C@@H](CCCCN)C(=O)N[C@@H](CCCCN)C(=O)N[C@H](C(=O)N[C@@H](CC(C)C)C(=O)N[C@@H](CO)C(=O)N[C@@H](CCCCN)C(=O)N[C@H](C(=O)N[C@@H](CCCCN)C(=O)N[C@@H](CCCCN)C(=O)N[C@@H](CC(C)C)C(=O)N[C@@H](CC(C)C)C(N)=O)[C@@H](C)CC)[C@@H](C)CC [AHX-DK5] (H-[Ahx]IKKILSKIKKLL-NH2): 50
- CCCCCCCCCCCCCCCC(=O)N[C@H](C(=O)N[C@@H](CCCCN)C(=O)N[C@@H](CCCCN)C(=O)N[C@H](C(=O)N[C@@H](CC(C)C)C(=O)N[C@@H](CO)C(=O)N[C@@H](CCCCN)C(=O)N[C@H](C(=O)N[C@@H](CCCCN)C(=O)N[C@@H](CCCCN)C(=O)N[C@@H](CC(C)C)C(=O)N[C@@H](CC(C)C)C(N)=O)[C@@H](C)CC)[C@@H](C)CC)[C@@H](C)CC [Compound C16-DK5] (Palmitoyl-IKKILSKIKKLL-NH2): 6.25

Tell me the measured MIC100 of CCCCC(=O)N[C@H](C(=O)N[C@@H](CCCCN)C(=O)N[C@@H](CCCCN)C(=O)N[C@H](C(=O)N[C@@H](CC(C)C)C(=O)N[C@@H](CO)C(=O)N[C@@H](CCCCN)C(=O)N[C@H](C(=O)N[C@@H](CCCCN)C(=O)N[C@@H](CCCCN)C(=O)N[C@@H](CC(C)C)C(=O)N[C@@H](CC(C)C)C(N)=O)[C@@H](C)CC)[C@@H](C)CC)[C@@H](C)CC [Compound C5-DK5] (Pentanoyl-IKKILSKIKKLL-NH2) , please.
25

---

# System: C.krusei CCM 8271
# ASSAY_PROCEDURE: MIC, broth microdilution
# Format: cell-based, Candida krusei
# PARTICULARS: C.krusei CCM 8271, 24 h
# Text: Escherichia coli (PCM 2057 = ATCC 25922), Staphylococcus aureus (PCM 2054 = ATCC 25923), Staphylococcus epidermidis (PCM 2118 = ATCC 14990), Bacillus subtilis (PCM 2224 = ATCC 9799), Bacillus cereus (PCM 482 = ATCC 10702) and Pseudomonas aeruginosa (PCM 499 = ATCC 10145) were obtained from the Polish Collection of Microorganisms. […]
Where a SMILES comes first, the peptide text is derived from it. [ ]: non-standard residue; d: D form. The star is where a group is joined. Lauroyl = CCCCCCCCCCCC(=O)*; AEEA = NCCOCCOCC(=O)O; βAla = NCCC(=O)O
Entries and their MIC100
API: value field is a number in µg/mL; no unit string.

• CC[C@H](C)[C@H](NC(=O)COCCOCCNC(=O)[C@H](Cc1c[nH]cn1)NC(=O)CCN)C(=O)N[C@@H](CCCCN)C(=O)N[C@@H](CCCCN)C(=O)N[C@H](C(=O)N[C@@H](CC(C)C)C(=O)N[C@@H](CO)C(=O)N[C@@H](CCCCN)C(=O)N[C@H](C(=O)N[C@@H](CCCCN)C(=O)N[C@@H](CCCCN)C(=O)N[C@@H](CC(C)C)C(=O)N[C@@H](CC(C)C)C(N)=O)[C@@H](C)CC)[C@@H](C)CC [CAR-PEG-DK5] (H-[βAla]H[AEEA]IKKILSKIKKLL-NH2; N-terminus and C-terminus assumed) = 3.9

// next item, MIC100 requested
Quick check: MIC100 on C.krusei CCM 8271, item CCCCCCCCCCCC(=O)N[C@H](C(=O)N[C@@H](CCCCN)C(=O)N[C@@H](CCCCN)C(=O)N[C@H](C(=O)N[C@@H](CC(C)C)C(=O)N[C@@H](CO)C(=O)N[C@@H](CCCCN)C(=O)N[C@H](C(=O)N[C@@H](CCCCN)C(=O)N[C@@H](CCCCN)C(=O)N[C@@H](CC(C)C)C(=O)N[C@@H](CC(C)C)C(N)=O)[C@@H](C)CC)[C@@H](C)CC)[C@@H](C)CC [Compound C12-DK5] (Lauroyl-IKKILSKIKKLL-NH2) ?
3.13

---

# Test system: keratinocytes (HaCaT)
# ASSAY_PROCEDURE: Cytotoxicity, MTT assay
# Format: cell-based, human
# PARTICULARS: keratinocytes, MTT, 24 h, 1 to 50 µg/mL
Where a SMILES comes first, the peptide text is derived from it. [ ]: non-standard residue; d: D form. The star is where a group is joined. Pentanoyl = CCCCC(=O)*; Ahx = NCCCCCC(=O)O
QUANTITY_NAME: effect on cell viability (in words)

• CCCCC(=O)N[C@H](C(=O)N[C@@H](CCCCN)C(=O)N[C@@H](CCCCN)C(=O)N[C@H](C(=O)N[C@@H](CC(C)C)C(=O)N[C@@H](CO)C(=O)N[C@@H](CCCCN)C(=O)N[C@H](C(=O)N[C@@H](CCCCN)C(=O)N[C@@H](CCCCN)C(=O)N[C@@H](CC(C)C)C(=O)N[C@@H](CC(C)C)C(N)=O)[C@@H](C)CC)[C@@H](C)CC)[C@@H](C)CC [Compound C5-DK5] (Pentanoyl-IKKILSKIKKLL-NH2) = moderately toxic
• CC[C@H](C)[C@H](NC(=O)CCCCCN)C(=O)N[C@@H](CCCCN)C(=O)N[C@@H](CCCCN)C(=O)N[C@H](C(=O)N[C@@H](CC(C)C)C(=O)N[C@@H](CO)C(=O)N[C@@H](CCCCN)C(=O)N[C@H](C(=O)N[C@@H](CCCCN)C(=O)N[C@@H](CCCCN)C(=O)N[C@@H](CC(C)C)C(=O)N[C@@H](CC(C)C)C(N)=O)[C@@H](C)CC)[C@@H](C)CC [AHX-DK5] (H-[Ahx]IKKILSKIKKLL-NH2) = moderately toxic

---

# Tested on: C.krusei CCM 8271
# ASSAY_PROCEDURE: MIC, broth microdilution
# Type: cell-based, Candida krusei
# PARTICULARS: C.krusei CCM 8271, 24 h
Where a SMILES comes first, the peptide text is derived from it. [ ]: non-standard residue; d: D form. AEEA = NCCOCCOCC(=O)O; Ahx = NCCCCCC(=O)O; βAla = NCCC(=O)O
QUANTITY_NAME: MIC100

* CCCCCCCCCCCC(=O)NCCC(=O)N[C@@H](Cc1c[nH]cn1)C(=O)O [Compound C12-CAR, CH3(CH2)10C(O)-βAH] | Non-inhibitory
* CCCCCCCCCCCCCCCC(=O)NCCC(=O)N[C@@H](Cc1c[nH]cn1)C(=O)O [Compound C16-CAR, CH3(CH2)14C(O)-βAH] | Non-inhibitory
* CC[C@H](C)[C@H](NC(=O)COCCOCCNC(=O)[C@H](Cc1c[nH]cn1)NC(=O)CCNC(=O)CCCCCN)C(=O)N[C@@H](CCCCN)C(=O)N[C@@H](CCCCN)C(=O)N[C@H](C(=O)N[C@@H](CC(C)C)C(=O)N[C@@H](CO)C(=O)N[C@@H](CCCCN)C(=O)N[C@H](C(=O)N[C@@H](CCCCN)C(=O)N[C@@H](CCCCN)C(=O)N[C@@H](CC(C)C)C(=O)N[C@@H](CC(C)C)C(N)=O)[C@@H](C)CC)[C@@H](C)CC [AHX-CAR-PEG-DK5] (H-[Ahx][βAla]H[AEEA]IKKILSKIKKLL-NH2) | >50 µg/mL
* CCCCC(=O)NCCC(=O)N[C@@H](Cc1c[nH]cn1)C(=O)O | Non-inhibitory
